All figures here come from the supplement of paper PMC11451515.

Consider the following compounds; for each one, report its cell viability.
Test system: P12-Ichikawa
test_description: cell viability relative to DMSO control; higher = less cytotoxic
stated_conditions: HPLM + 10% dialyzed FBS; 48 h; 0.000781 µM
Write down the numeric answer in % and omit the unit.

Query :: Let me know recorded cell viability for `CC(C)(C)c1[nH]cnc1/C=c1\[nH]c(=O)/c(=C/c2ccccc2)[nH]c1=O` , thanks.
Result :: 115

Query :: Let me know recorded cell viability for `FC(F)c1nc2ccccc2n1-c1nc(N2CCOCC2)nc(N2CCOCC2)n1` , thanks.
Result :: 98.2

Query :: Let me know recorded cell viability for `C[C@@H]\1CC(=O)N\N=C1C2=CC=C(NN=C(C#N)C#N)C=C2` , thanks.
Result :: 91.5

Query :: Let me know recorded cell viability for `CNC(=O)c1ccc(N2C(=S)N(c3ccc(C#N)c(C(F)(F)F)c3)C(=O)C23CCC3)cc1F` , thanks.
Result :: 86.5

Query :: Let me know recorded cell viability for `OC1=CC2=C(C(=C1)O)C(=O)\C=C(/O2)C3=CC=CC=C3` , thanks.
Result :: 104

Query :: Let me know recorded cell viability for `N#Cc1c(NC(=O)c2cccc3ccccc23)sc2c1CCCC2` , thanks.
Result :: 121

Query :: Let me know recorded cell viability for `COc1ccc(-n2nc(C(N)=O)c3c2C(=O)N(c2ccc(N4CCCCC4=O)cc2)CC3)cc1` , thanks.
Result :: 118

Query :: Let me know recorded cell viability for `Nc1ncnc2c1c(-c1cnc3[nH]ccc3c1)nn2C1CCCC1` , thanks.
Result :: 117

Query :: Let me know recorded cell viability for `O=C(O)c1ccc2c(c1)nc(Nc1cccc(Cl)c1)c1ccncc12` , thanks.
Result :: 106

Query :: Let me know recorded cell viability for `CC(C)C1=C(O)C=C(O)C(=C1)C/2=N/NC(=O)N2C3=CC4=C(C=C3)[N](C)C=C4` , thanks.
Result :: 119

Query :: Let me know recorded cell viability for `C/C=C(/C)C(=O)O[C@H]1C(C)=C[C@]23C(=O)[C@@H](C=C(CO)[C@@H](O)[C@]12O)[C@H]1[C@@H](C[C@H]3C)C1(C)C` , thanks.
Result :: 111

Query :: Let me know recorded cell viability for `CN1\C(=C(\O)C2=CC=CC=C2[S+]1([O-])=O)C(=O)NC3=NC=C(C)S3` , thanks.
Result :: 95

Query :: Let me know recorded cell viability for `CC(C)NC[C@@H](C(=O)N1CCN(c2ncnc3c2[C@H](C)C[C@H]3O)CC1)c1ccc(Cl)cc1` , thanks.
Result :: 118

Query :: Let me know recorded cell viability for CNC1CCC(N(Cc2cccc(-c3ccncc3)c2)C(=O)c2sc3c(F)ccc(F)c3c2Cl)CC1 (stereo not drawn) , thanks.
Result :: 87.6

Query :: Let me know recorded cell viability for CCC(C)(C)c1ccc(CC(C)CN2C[C@@H](C)O[C@@H](C)C2)cc1 (stereo partly drawn) , thanks.
Result :: 81.2

Query :: Let me know recorded cell viability for `CN(C)[C@H]\1[C@@H]2C[C@H]3C(=C(O)\[C@]2(O)C(=O)\C(=C1O)C(N)=O)/C(=O)C4=C(O)C=CC=C4[C@@]3(C)O` , thanks.
Result :: 113

Query :: Let me know recorded cell viability for `Cn1cnc2c1c(=O)[nH]c(=O)n2C` , thanks.
Result :: 105

Query :: Let me know recorded cell viability for `COC1=C2OC(=O)\C=C/C2=CC3=C1OC=C3` , thanks.
Result :: 118

----------
Test system: SEM cells
test_description: cell viability relative to DMSO control; higher = less cytotoxic
stated_conditions: RPMI 5 mM glucose + 10% FBS; 48 h; 0.00234 µM
Consider the following molecules; for each one, report its cell viability.
Write down the numeric answer in % and omit the unit.

Query :: Name the value of cell viability reported for `COc1cc(OC)c(/C=C/[S+](=O)([O-])Cc2ccc(OC)c(NCC(=O)[O][Na])c2)c(OC)c1` when tested on SEM cells.
Result :: 107

Query :: Name the value of cell viability reported for `CN(C)[C@H]\1[C@@H]2C[C@H]3C(=C(O)\[C@]2(O)C(=O)\C(=C1O)C(N)=O)/C(=O)C4=C(O)C=CC=C4[C@@]3(C)O` when tested on SEM cells.
Result :: 118

Query :: Name the value of cell viability reported for `Cc1cc2c(F)c(Oc3ncnn4cc(OC[C@@H](C)O)c(C)c34)ccc2[nH]1` when tested on SEM cells.
Result :: 117

Query :: Name the value of cell viability reported for `CNC(=O)c1ccc(N2C(=S)N(c3ccc(C#N)c(C(F)(F)F)c3)C(=O)C23CCC3)cc1F` when tested on SEM cells.
Result :: 83.4

Query :: Name the value of cell viability reported for `Cc1c(C(=O)NN2CCCCC2)nn(-c2ccc(Cl)cc2Cl)c1-c1ccc(Cl)cc1` when tested on SEM cells.
Result :: 112

Query :: Name the value of cell viability reported for C[C@]12CC[C@@H]3c4ccc(O)cc4C[C@@H](CCCCCCCCC[S+]([O-])CCCC(F)(F)C(F)(F)F)[C@H]3[C@@H]1CC[C@@H]2O (stereo partly drawn) when tested on SEM cells.
Result :: 84

Query :: Name the value of cell viability reported for `C\C1=C(\C=C(\C#N)C(=O)N1)C2=CC=NC=C2` when tested on SEM cells.
Result :: 92.5

Query :: Name the value of cell viability reported for `COc1ccc(-n2nc(C(N)=O)c3c2C(=O)N(c2ccc(N4CCCCC4=O)cc2)CC3)cc1` when tested on SEM cells.
Result :: 136

----------
System: P12-Ichikawa
test_description: cell viability relative to DMSO control; higher = less cytotoxic
stated_conditions: RPMI 5 mM glucose + 10% FBS; 48 h; 15.4 µM
Could you please mark 1 (yes) for values of cell viability below 80% and 0 (no) for values at or above it?

Query :: Threshold test, cell viability < 80%: `Cc1cc(C(C)(C)C)c(O)c(C)c1CC1=NCCN1`
Result :: 1 (yes)

Query :: Threshold test, cell viability < 80%: `CC(C)CC(=O)N[C@H](C(=O)N[C@H](C(=O)N[C@@H](CC(C)C)[C@@H](O)CC(=O)N[C@@H](C)C(=O)N[C@@H](CC(C)C)[C@@H](O)CC(=O)O)C(C)C)C(C)C`
Result :: 0 (no)

Query :: Threshold test, cell viability < 80%: COc1ccc(C2CNC(=O)C2)cc1OC1CCCC1 (centres undefined)
Result :: 0 (no)

Query :: Threshold test, cell viability < 80%: `O=C(O)c1ccc2c(c1)nc(Nc1cccc(Cl)c1)c1ccncc12`
Result :: 1 (yes)

Query :: Threshold test, cell viability < 80%: `COc1ccc(C(C)=O)c(O)c1`
Result :: 1 (yes)

Query :: Threshold test, cell viability < 80%: `S=P(N1CC1)(N1CC1)N1CC1`
Result :: 0 (no)

Query :: Threshold test, cell viability < 80%: O=C(O)C1=NC(C(=O)O)CC(/C=C/N2c3cc(O)c(OC4OC(CO)C(O)C(O)C4O)cc3CC2C(=O)O)=C1 (centres undefined)
Result :: 0 (no)

Query :: Threshold test, cell viability < 80%: `O=C(Nc1ccc(F)c(C(F)(F)F)c1)Nc1nnc(-c2ccncc2)s1`
Result :: 0 (no)

Query :: Threshold test, cell viability < 80%: `C=C[C@H]1CN2CC[C@H]1C[C@H]2[C@H](O)c1ccnc2ccc(OC)cc12`
Result :: 0 (no)

Query :: Threshold test, cell viability < 80%: `Cc1[nH]c2ccccc2c1CCNCc1ccc(/C=C/C(=O)NO)cc1`
Result :: 1 (yes)

Query :: Threshold test, cell viability < 80%: `Cc1ccc([S+](=O)([O-])N[C@@H](Cc2ccccc2)C(=O)CCl)cc1`
Result :: 0 (no)

----------
Consider the following molecules; for each one, report its cell viability.
Tested on: NOMO1
test_description: cell viability relative to DMSO control; higher = less cytotoxic
stated_conditions: RPMI 5 mM glucose + 10% FBS; 48 h; 0.569 µM
Write down the numeric answer in % and omit the unit.

Query :: Let me know recorded cell viability for `O=C1c2c(O)ccc(O)c2C(=O)c2c(NCCNCCO)ccc(NCCNCCO)c21` , thanks.
Result :: 18.5

Query :: Let me know recorded cell viability for `Cc1ccc([S+](=O)([O-])N[C@@H](Cc2ccccc2)C(=O)CCl)cc1` , thanks.
Result :: 90.3

Query :: Let me know recorded cell viability for O=C(O)C1=NC(C(=O)O)CC(/C=C/N2c3cc(O)c(OC4OC(CO)C(O)C(O)C4O)cc3CC2C(=O)O)=C1 (centres undefined) , thanks.
Result :: 98.4

Query :: Let me know recorded cell viability for `CN(C)C1=CC=C(C=C1)C(C2=CC=C(C=C2)N(C)C)=C/3\C=C/C(/C=C3)=[N+](C)C` , thanks.
Result :: 6.73

Query :: Let me know recorded cell viability for `N=C(NCCCCCCNC(=N)NC(=N)Nc1ccc(Cl)cc1)NC(=N)Nc1ccc(Cl)cc1` , thanks.
Result :: 93.2

Query :: Let me know recorded cell viability for `C\C1=C(\C=C(\C#N)C(=O)N1)C2=CC=NC=C2` , thanks.
Result :: 106

Query :: Let me know recorded cell viability for `CN1C[C@H]2c3ccccc3Oc3ccc(Cl)cc3[C@@H]2C1` , thanks.
Result :: 80.7

Query :: Let me know recorded cell viability for `CC(C)=CC[C@@H](O)C/1=C/C(=O)C2=C(O)C=CC(=C2C1=O)O` , thanks.
Result :: 108

Query :: Let me know recorded cell viability for `Cc1cn([C@@H]2O[C@H](CO)[C@@H](O)[C@@H]2F)c(=O)[nH]c1=O` , thanks.
Result :: 110
